IC50 values for the compounds below.
test system: pERK in H358 cells; assay: pERK inhibition in H358 cells; assay type: cell-based, human; conditions: 4 hours treatment, read-out: Cellular pERK inhibition

- CC1COC(=O)C2CCCN(N2)C(=O)C(NC(=O)C(C(C)C)N(C)C(=O)C2CN(C(=O)CCl)C2)Cc2cc(O)cc(c2)-c2ccc3c4c(n(c3c2)C1)CCC4C#N (mixture of isomers) [Compound 74]: 1 to 10 µM
- CC(C)[C@@H](C(=O)N[C@H]1Cc2cc(O)cc(n2)-c2ccc3c(C(C)(C)C#N)cn(c3c2)C[C@H](C)COC(=O)[C@@H]2CCCN(N2)C1=O)N(C)C(=O)C1CN(C(=O)CCl)C1 [Compound 59]: > 10 µM

Now for the compound whose IC50 we want.
Field request: IC50 | item: C=CC(=O)N1CCC(C(=O)N(C)C(C(=O)NC2Cc3cc(O)cc(c3)-c3ccc4c(c3)N(CC(C)(C)COC(=O)C3CCCN(N3)C2=O)CC4(C)COC)C2CCCC2)C1 (stereo not drawn) [Compound 398]
≤ 1 µM

----------
biological target: cyclophilin A (CYPA) (Homo sapiens, UniProt P62937); test: CYPA-compound binary complex formation by SPR; details: read-out: CYPA Binding Affinity
pKd: −log10 of the molar value.
Entries and their measured pKd follow.

Solved cases below.
• CC#CC(=O)N1CCN(C(=O)N(C)[C@H](C(=O)N[C@H]2Cc3cc(O)cc(c3)-c3ccc4c(C(C)(C)C#N)cn(c4c3)CC(C)(C)COC(=O)[C@@H]3CCCN(N3)C2=O)C(C)C)CC1 [Compound 343] = ≥ 5.30
• C=CC(=O)N1CCCC1C(=O)N(C)C(C(=O)NC1Cc2cc(O)cc(c2)-c2ccc3c(C(F)F)nn(c3c2)CC(C)COC(=O)C2CCCN(N2)C1=O)C(C)C (stereo not shown) [Compound 205] = < 4.82
• CCN1C(=O)CCN2C[C@H](C)COC(=O)[C@@H]3CCCN(N3)C(=O)[C@@H](NC(=O)[C@H](C(C)C)N(C)C(=O)C3CN(C(=O)CCl)C3)Cc3cc(O)cc(c3)-c3ccc1c2c3 [Compound 188] = ≥ 5.30
• CC1COC(=O)[C@@H]2CCCN(N2)C(=O)[C@@H](NC(=O)[C@H](C(C)C)N(C)C(=O)C2CN(C(=O)CCl)C2)Cc2cc(O)cc(c2)-c2ccc3c(S(C)(=O)=O)cn(c3c2)C1 (single isomer, unassigned) [Compound 111] = 4.82 to 5.30
• CC(C)[C@@H](C(=O)N[C@H]1Cc2cc(O)cc(c2)-c2ccc3c(C(C)(C)C#N)cn(c3c2)CC(C(F)F)COC(=O)[C@@H]2CCCN(N2)C1=O)N(C)C(=O)C1CN(C(=O)CCl)C1 (single isomer, unassigned) [Compound 37] = 4.82 to 5.30
• CC(C)[C@@H](C(=O)N[C@H]1Cc2cc(O)cc(c2)-c2ccc3c4cc(C#N)ccc4n(c3c2)CC(C)(C)COC(=O)[C@@H]2CCCN(N2)C1=O)N(C)C(=O)C1CN(C(=O)CCl)C1 [Compound 68] = ≥ 5.30
• CC1COC(=O)C2CCCN(N2)C(=O)C(NC(=O)C(C(C)C)N(C)C(=O)C2CN(C(=O)CCl)C2)Cc2cc(O)cc(c2)-c2ccc3c4c(n(c3c2)C1)COCC4(C)C#N (mixture of isomers) [Compound 62] = 4.82 to 5.30
• CC(C)C(C(=O)NC1Cc2cc(O)cc(c2)-c2ccc3c(C(C)(C)C#N)cn(c3c2)CC(C(F)F)COC(=O)C2CCCN(N2)C1=O)N(C)C(=O)C1CN(C(=O)CCl)C1 (single isomer, unassigned) [Compound 36] = 4.82 to 5.30

# get_value(readout='pKd', item= C=CC(=O)N1CCN([C@H](C(=O)N[C@H]2Cc3cc(O)cc(c3)-c3ccc4c(C5CCOCC5)cn(c4c3)CCCOC(=O)[C@@H]3CCCN(N3)C2=O)C(C)C)C1=O [Compound 229] )
≥ 5.30

Quick one: pKd of C=CS(=O)(=O)N1CCN([C@H](C(=O)N[C@H]2Cc3cc(O)cc(c3)-c3ccc4nc(C)n(c4c3)CC(C)(C)COC(=O)[C@@H]3CCCN(N3)C2=O)C(C)C)C1=O [Compound 152] ?
4.82 to 5.30

Look up pKd for this compound: C=CC(=O)N1CCC(C(=O)N(C)C(C(=O)NC2Cc3cc(O)cc(c3)-c3ccc4c(c3)c(cn4-c3cc(COC)ccc3C#N)CC(C)(C)COC(=O)C3CCCN(N3)C2=O)C(C)C)C1 (stereo not shown) [Compound 393]
4.82 to 5.30

Would you kindly share the measured pKd for CON=C(C)c1cn2c3cc(ccc13)-c1cc(O)cc(c1)CC(NC(=O)C(C(C)C)N(C)C(=O)C1CN(C(=O)CCl)C1)C(=O)N1CCCC(N1)C(=O)OCC(C)C2 (stereo not shown) [Compound 73] ?
≥ 5.30

Could you share which pKd value was measured for C=CC(=O)N1CCC1C(=O)N(C)C(C(=O)NC1Cc2cc(O)cc(c2)-c2ccc3c(C(F)F)nn(c3c2)CC(C)COC(=O)C2CCCN(N2)C1=O)C(C)C (stereo not shown) [Compound 203] ?
< 4.82

----------
Biological target: BRAF-GTP-KRAS-G12C complex (Homo sapiens, UniProt P01116+P62937, G12C)
Construct: 50 nM of His6-KRas G12C-GTP (1-169); 500 nM of tagless CypA (1-165)
Experiment: KRAS-BRAF complex disruption through competition with CYPA-compound by TR-FRET
Conditions: biochemical BRAF-KRAS G12C-GTP disruption assay EC50, with CYPA
Method: In this example, TR-FRET was used to measure the compound-facilitated disruption of a KRAS-BRAF complex. […] TR-FRET signal was read on an EnVision microplate reader (Perkin Elmer, Ex 320 nm, Em 665/615 nm). […] Experimental Protocol • 1. Use Mosquito to dispense 100 nL/well of compounds (varying concentration in […]) into 384-well black ProxiPlate to make assay-ready-plate (ARP). • 2. […] Read on EnVision (Ex: 320 nm; Em1: 615 nm; Em2: 665 nm). • 8. […]
pEC50: −log10 of the molar value.
// reported pEC50 for each item listed

Take a look at these entries with their results.
* C=CC(=O)N1CCC1C(=O)N(C)C(C(=O)NC1Cc2cc(O)cc(c2)-c2ccc3c(C(F)F)nn(c3c2)CC(C)COC(=O)C2CCCN(N2)C1=O)C(C)C (stereo not shown) [Compound 204] | < 5.30
* CCN1CCC(=O)N2C[C@H](C)COC(=O)[C@@H]3CCCN(N3)C(=O)[C@@H](NC(=O)[C@H](C(C)C)N(C)C(=O)C3CN(C(=O)CCl)C3)Cc3cc(O)cc(c3)-c3ccc1c2c3 [Compound 186] | < 5.30

Which pEC50 is reported with BRAF-GTP-KRAS-G12C complex (Homo sapiens, UniProt P01116+P62937, G12C) for this entry: CC(C)[C@@H](C(=O)N[C@H]1Cc2cc(O)cc(c2)-c2ccc3c(-c4ccn(C)n4)cn(c3c2)CC(C)(C)COC(=O)[C@@H]2CCCN(N2)C1=O)N(C)C(=O)C1CN(C(=O)CCl)C1 [Compound 257] ?
≥ 6.30

Request body: readout pEC50, system BRAF-GTP-KRAS-G12C complex (Homo sapiens, UniProt P01116+P62937, G12C), query CON=C(C)c1cn2c3cc(ccc13)-c1cc(O)cc(c1)CC(NC(=O)C(C(C)C)N(C)C(=O)C1CN(C(=O)CCl)C1)C(=O)N1CCCC(N1)C(=O)OCC(C)C2 (stereo not shown) [Compound 73] . Return the value.
≥ 6.30

Param readout= pEC50; system= BRAF-GTP-KRAS-G12C complex (Homo sapiens, UniProt P01116+P62937, G12C); entry= COc1ccccc1-c1cn2c3cc(ccc13)-c1cc(O)cc(c1)CC(NC(=O)C(C(C)C)N(C)C(=O)C1CN(C(=O)CCl)C1)C(=O)N1CCCC(N1)C(=O)OCC(C)C2 (stereo not shown) [Compound 48] ; returns value.
≥ 6.30

Short answer please: pEC50, BRAF-GTP-KRAS-G12C complex (Homo sapiens, UniProt P01116+P62937, G12C), entry CC(C)C(C(=O)NC1Cc2cc(O)cc(c2)-c2ccc3c(C(C)(C)C#N)cn(c3c2)CC(Cl)COC(=O)C2CCCN(N2)C1=O)N(C)C(=O)C1CN(C(=O)CCl)C1 (single isomer, unassigned) [Compound 41]
≥ 6.30

Short answer please: pEC50, BRAF-GTP-KRAS-G12C complex (Homo sapiens, UniProt P01116+P62937, G12C), entry C=CC(=O)N1CCN([C@H](C(=O)N[C@H]2Cc3cncc(c3)-c3ccc4nc(CC)n(c4c3)CCCOC(=O)[C@@H]3CCCN(N3)C2=O)C(C)C)C1=O [Compound 4]
< 5.30

The measurements presented in this section are drawn from patent US20240139185A1.
